Task for the reader: assign each of the following compounds its reported IC50.
# Test system: CK2A1 (CK2α/β) (Homo sapiens)
# Assay method text: CK2 kinase assay, CK2A1 (CK2α/β)
# Assay type: biochemical
# Settings: Table A; read-out: CK2A1 (CK2α/β) (IC50)
Numeric answer only, unit nM assumed.

Bench note, CK2A1 (CK2α/β) (Homo sapiens): entry COC(=O)N[C@H]1CN(c2cc(C#N)cc(Nc3nc(NC4CC4)c4ncc(C#N)n4n3)c2Cl)C[C@@H]1OC , its IC50 = 0.91

Bench note, CK2A1 (CK2α/β) (Homo sapiens): entry CCNc1nc(Nc2cc(C#N)cc(C3CCN(C4COC4)CC3)c2Cl)nn2c(C#N)cnc12 , its IC50 = 2.75

Bench note, CK2A1 (CK2α/β) (Homo sapiens): entry CNC1CCN(c2cc(C#N)cc(Nc3nc(NC4CC4)c4ncc(C#N)n4n3)c2Cl)C1 (racemic) , its IC50 = 0.57

Bench note, CK2A1 (CK2α/β) (Homo sapiens): entry CN1CCC(O)(c2cc(C#N)cc(Nc3nc(NC4CC4)c4ncc(C#N)n4n3)c2Cl)CC1 , its IC50 = 1.01

Bench note, CK2A1 (CK2α/β) (Homo sapiens): entry N#Cc1cc(Nc2nc(NC3CC3)c3ncc(C#N)n3n2)c(Cl)c(N2CC(N3CCC(O)C3)C2)c1 (racemic) , its IC50 = 0.48

Bench note, CK2A1 (CK2α/β) (Homo sapiens): entry N#Cc1cnc2c(NC3CC3)nc(Nc3cc(OC(F)F)cc(N4CCN(C5COC5)CC4)c3Cl)nn12 , its IC50 = 2.05

Bench note, CK2A1 (CK2α/β) (Homo sapiens): entry CCNc1nc(Nc2cc(C#N)cc(N3CCN(C4(CCO)COC4)CC3)c2Cl)nn2c(C#N)cnc12 , its IC50 = 1.1

Bench note, CK2A1 (CK2α/β) (Homo sapiens): entry COCCOCC(=O)N1CCN(c2cc(C#N)cc(Nc3nc(NC4CC4)c4ncc(C#N)n4n3)c2Cl)CC1 , its IC50 = 0.6

Bench note, CK2A1 (CK2α/β) (Homo sapiens): entry CN1CCN(C2CN(c3cc(C#N)cc(Nc4nc(NC5CC5)c5ncc(C#N)n5n4)c3Cl)C2)CC1 , its IC50 = 0.59

Bench note, CK2A1 (CK2α/β) (Homo sapiens): entry CN1CCC(N2CC(c3cc(C#N)cc(Nc4nc(NC5CC5)c5ncc(C#N)n5n4)c3Cl)C2)CC1 , its IC50 = 1.68

Bench note, CK2A1 (CK2α/β) (Homo sapiens): entry CC(C)OC(=O)N1CC(N2CCN(c3cc(C#N)cc(Nc4nc(NC5CC5)c5ncc(C#N)n5n4)c3Cl)CC2)C1 , its IC50 = 10.3

Bench note, CK2A1 (CK2α/β) (Homo sapiens): entry CCNc1nc(Nc2cc(C#N)cc(N3CCC(N(C(=O)OC)C4COC4)CC3)c2Cl)nn2c(C#N)cnc12 , its IC50 = 0.78

Bench note, CK2A1 (CK2α/β) (Homo sapiens): entry CN(C)C(=O)C1CN(c2cc(C#N)cc(Nc3nc(NC4CC4)c4ncc(C#N)n4n3)c2Cl)CCN1C1COC1 (stereo not shown) , its IC50 = 4.86

Bench note, CK2A1 (CK2α/β) (Homo sapiens): entry COC(=O)N[C@@H]1CCN(c2cc(C#N)cc(Nc3nc(NC4CC4)c4ncc(C#N)n4n3)c2Cl)C[C@H]1OC(=O)CN1CCOCC1 , its IC50 = 0.8

Bench note, CK2A1 (CK2α/β) (Homo sapiens): entry N#Cc1cnc2c(NC3CC3)nc(Nc3cc(C(F)F)cc(N4CCC(C(=O)O)CC4)c3Cl)nn12 , its IC50 = 1.55

Bench note, CK2A1 (CK2α/β) (Homo sapiens): entry CCNc1nc(Nc2cc(C#N)cc(N3CC[C@H]4[C@H](C3)OC(=O)N4C3COC3)c2Cl)nn2c(C#N)cnc12 , its IC50 = 1.74

Bench note, CK2A1 (CK2α/β) (Homo sapiens): entry CC(O)CN1CCN(c2cc(C#N)cc(Nc3nc(NC4CC4)c4ncc(C#N)n4n3)c2Cl)C(=O)C1 (racemic) , its IC50 = 2.94

Bench note, CK2A1 (CK2α/β) (Homo sapiens): entry COC(=O)N1CCC2CCN(c3cc(C#N)cc(Nc4nc(NC5CC5)c5ncc(C#N)n5n4)c3Cl)CC21 (racemic) , its IC50 = 16.4

Bench note, CK2A1 (CK2α/β) (Homo sapiens): entry COCCC(=O)N1CC(N2CCN(c3cc(C#N)cc(Nc4nc(NC5CC5)c5ncc(C#N)n5n4)c3Cl)CC2)C1 , its IC50 = 1.52

* * *

# Test system: CK2A1 (CK2α/β) (Homo sapiens, UniProt P68400)
# Sequence (P68400 whole entry, species assumed): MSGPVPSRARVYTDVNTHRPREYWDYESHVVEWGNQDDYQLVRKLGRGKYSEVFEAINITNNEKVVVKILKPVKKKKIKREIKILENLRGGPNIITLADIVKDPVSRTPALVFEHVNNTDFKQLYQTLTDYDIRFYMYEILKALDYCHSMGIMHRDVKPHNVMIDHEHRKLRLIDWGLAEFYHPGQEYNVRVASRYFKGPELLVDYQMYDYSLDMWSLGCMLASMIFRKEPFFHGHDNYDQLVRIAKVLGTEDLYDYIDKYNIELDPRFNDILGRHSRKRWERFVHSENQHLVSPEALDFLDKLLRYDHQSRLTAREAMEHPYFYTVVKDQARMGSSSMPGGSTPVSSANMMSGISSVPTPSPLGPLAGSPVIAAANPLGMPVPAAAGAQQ
# Sequence (P67870 whole entry partner, species assumed): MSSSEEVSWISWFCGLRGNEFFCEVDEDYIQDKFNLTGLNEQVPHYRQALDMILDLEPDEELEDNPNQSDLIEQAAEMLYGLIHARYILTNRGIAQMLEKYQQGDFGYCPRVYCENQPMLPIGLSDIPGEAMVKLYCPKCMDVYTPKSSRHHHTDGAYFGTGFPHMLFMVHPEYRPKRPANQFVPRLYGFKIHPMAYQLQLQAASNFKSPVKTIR
# Assay method text: CK2 kinase assay, CK2A1 (CK2α/β)
# Type: biochemical
# Settings: Table A; read-out: CK2A1 (CK2α/β) (IC50)
Task for the reader: assign each of the following molecules its reported pIC50.
Here pIC50 is given on a logarithmic scale as minus log10 of the concentration in mol/L.

Bench note, CK2A1 (CK2α/β) (Homo sapiens, UniProt P68400): entry CN1CCN2CCN(c3cc(C#N)cc(Nc4nc(NC5CC5)c5ncc(C#N)n5n4)c3Cl)CC2C1=O (racemic) [Example 626] , its pIC50 = 9.13

Bench note, CK2A1 (CK2α/β) (Homo sapiens, UniProt P68400): entry N#Cc1cnc2c(NC3CC3)nc(Nc3cc(C(F)F)cc(N4CC(NCC(O)CO)C4)c3Cl)nn12 (racemic) [Example 261] , its pIC50 = 8.61

Bench note, CK2A1 (CK2α/β) (Homo sapiens, UniProt P68400): entry CCNc1nc(Nc2cc(C#N)cc(N3CC[C@@H](NC(=O)OC)[C@H](N(C)C4COC4)C3)c2Cl)nn2c(C#N)cnc12 [Example 750] , its pIC50 = 9.05

Bench note, CK2A1 (CK2α/β) (Homo sapiens, UniProt P68400): entry N#Cc1cc(Nc2nc(NC3CC3)c3ncc(C#N)n3n2)c(Cl)c(N2CCN(C3(CCO)COC3)CC2)c1 [Example 537] , its pIC50 = 8.98

Bench note, CK2A1 (CK2α/β) (Homo sapiens, UniProt P68400): entry N#Cc1cc(Nc2nc(NC3CC3)c3ncc(C#N)n3n2)c(Cl)c(N2CCC(NC3CCOCC3)CC2)c1 [Example 125] , its pIC50 = 9.12

* * *

Task for the reader: assign each of the following compounds its reported IC50.
# Test system: CK2A1 (CK2α/β) (Homo sapiens)
# Assay method text: CK2 kinase assay, CK2A1 (CK2α/β)
# Type: biochemical
# Settings: Table A; read-out: CK2A1 (CK2α/β) (IC50)
Numeric answer only, unit nM assumed.

Field IC50 (entry CN1CCN(Cc2cc(C#N)cc(Nc3nc(NC4CC4)c4ncc(C#N)n4n3)c2Cl)CC1 ) reads 0.76

Field IC50 (entry CCNc1nc(Nc2ccc3c(c2)c(C#N)cn3C2CCN(C3CNC3)CC2)nn2c(C#N)cnc12 ) reads 0.54

Field IC50 (entry CC1(N)CCN(c2cc(C(F)F)cc(Nc3nc(NC4CC4)c4ncc(C#N)n4n3)c2Cl)CC1 ) reads 0.51

Field IC50 (entry CC(C)(O)C1CCN(C2CN(c3cc(C#N)cc(Nc4nc(NC5CC5)c5ncc(C#N)n5n4)c3Cl)C2)CC1 ) reads 0.65

Field IC50 (entry CS(=O)(=O)NCC1CN(c2cc(C#N)cc(Nc3nc(NC4CC4)c4ncc(C#N)n4n3)c2Cl)CCO1 (racemic) ) reads 0.57

Field IC50 (entry N#Cc1cc(Nc2nc(NC3CC3)c3ncc(C#N)n3n2)c(Cl)c(N2C[C@@H]3CCCN(C4COC4)[C@@H]3C2)c1 ) reads 1.09

Field IC50 (entry CC(O)CN1CCC2CCN(c3cc(C#N)cc(Nc4nc(NC5CC5)c5ncc(C#N)n5n4)c3Cl)CC21 (racemic) ) reads 1.62

Field IC50 (entry CCNc1nc(Nc2cc(C#N)cc(N3CCC(NC(=O)OC)C(N[C@@H](C)C(N)=O)C3)c2Cl)nn2c(C#N)cnc12 (stereo in doubt) ) reads 2.1

* * *

# Test system: CK2A1 (CK2α/β) (Homo sapiens)
# Assay method text: CK2 kinase assay, CK2A1 (CK2α/β)
# Assay type: biochemical
# Settings: Table A; read-out: CK2A1 (CK2α/β) (IC50)
Measured parameter: IC50

Field IC50 (entry N#Cc1cc(Nc2nc(NC3CC3)c3ncc(C#N)n3n2)c(Cl)c(N2CCOC(C(=O)N3CCOCC3)C2)c1 (racemic) ) reads 1.62 nM

Field IC50 (entry N#Cc1cc2c(c(Nc3nc(NC4CC4)c4ncc(C#N)n4n3)c1)NCCOCC(=O)N2 ) reads 1.45 nM

Field IC50 (entry COC(=O)Nc1cc(Nc2nc(NC3CC3)c3ncc(C#N)n3n2)c(Cl)c(N2CC(N3CCN(C)CC3)C2)c1 ) reads 1.79 nM

Field IC50 (entry COC[C@H](NC[C@H]1CN(c2cc(C#N)cc(Nc3nc(NC4CC4)c4ncc(C#N)n4n3)c2Cl)CCO1)C1CC1 ) reads 1.4 nM

Field IC50 (entry N#Cc1cc(Nc2nc(NC3CC3)c3ncc(C#N)n3n2)c(Cl)c(N2CCN(C(=O)CC3CC3)CC2)c1 ) reads 0.72 nM

Field IC50 (entry CCNc1nc(Nc2cc(C#N)cc(N3CCOC(C(C)(C)O)C3)c2Cl)nn2c(C#N)cnc12 (racemic) ) reads 0.85 nM

Field IC50 (entry COCC(=O)N1CC(N2CCN(c3cc(C#N)cc(Nc4nc(NC5CC5)c5ncc(C#N)n5n4)c3Cl)CC2)C1 ) reads 0.82 nM

Field IC50 (entry N#Cc1cc(Nc2nc(NC3CC3)c3ncc(C#N)n3n2)c(F)c(N2CCN(C3CNC3)CC2)c1 ) reads 0.83 nM

Field IC50 (entry CC(Cc1cc(Cl)c(Nc2nc(NC3CC3)c3ncc(C#N)n3n2)cc1C#N)CN1CCOCC1 (stereo not drawn) ) reads 1.35 nM
